Organism: Rattus norvegicus
Assay Summary: DrugMatrix - Regimen: Daily Repeat
Assay type: toxicity, organism-based, Sprague-Dawley
Design: regimen Daily Repeat, gender Male, age 6-8 weeks
Stated Conditions: in vivo, po, 0 mg/kg, 72 h, tissue Blood, route oral GAVAGE, dose level Control, time 3 day, vehicle .5 % CMC
List of MEAN CORPUSCULAR VOLUME values.
Property Name: MEAN CORPUSCULAR VOLUME (fL)

Molecule	Unit Abbrev	Obs Value
Clc1cc2c(cc1Cl)Oc1cc(Cl)c(Cl)cc1O2	fL	64.45
O=c1cc(-c2ccccc2)oc2ccc3ccccc3c12	fL	64.45
COc1ccccc1OCC(O)COC(N)=O (stereo not drawn)	fL	62.48
C[C@@H](O)[C@H]1C(=O)N2C(C(=O)O)=C(S[C@@H]3CN[C@H](C(=O)N(C)C)C3)[C@H](C)[C@H]12	fL	63.47
COc1ccc(/C=C/C(=O)Nc2ccccc2C(=O)O)cc1OC	fL	63.47
CC(=O)O[C@]1(C(C)=O)CC[C@H]2[C@@H]3C=C(Cl)C4=CC(=O)[C@@H]5C[C@@H]5[C@]4(C)[C@H]3CC[C@@]21C [CYPROTERONE ACETATE]	fL	64.42
CC(C(=O)O)c1ccc(-c2ccccc2)c(F)c1 (stereo not drawn)	fL	63.47
CC[C@]1(O)CC[C@H]2[C@@H]3CCC4=CCCC[C@@H]4[C@H]3CC[C@@]21C	fL	64.1
C[C@]12C/C(=C/O)C(=O)C[C@@H]1CC[C@@H]1[C@@H]2CC[C@@]2(C)[C@H]1CC[C@]2(C)O	fL	63.66
C[C@@H]1CC[C@H]2[C@@H](C)C(=O)O[C@@H]3O[C@@]4(C)CC[C@@H]1[C@]32OO4	fL	62.48
Cc1cnc(C(=O)NCCc2ccc(S(=O)(=O)NC(=O)NC3CCCCC3)cc2)cn1 [GLIPIZIDE]	fL	64.42
CO[C@H]1C[C@@H]2CC[C@@H](C)[C@@](O)(O2)C(=O)C(=O)N2CCCC[C@H]2C(=O)O[C@H]([C@H](C)C[C@@H]2CC[C@@H](O)[C@H](OC)C2)CC(=O)[C@H](C)/C=C(\C)[C@@H](O)[C@@H](OC)C(=O)[C@H](C)C[C@H](C)/C=C/C=C/C=C/1C	fL	63.27
CCCCC1C(=O)N(c2ccccc2)N(c2ccccc2)C1=O	fL	62.77
C=C(CC)C(=O)c1ccc(OCC(=O)O)c(Cl)c1Cl	fL	59.76
CCOC(=O)[C@H](CCc1ccccc1)N[C@@H](C)C(=O)N1Cc2ccccc2C[C@H]1C(=O)O	fL	64.42
CN1C(=O)CN=C(c2ccccc2)c2cc(Cl)ccc21	fL	63.52
Nc1cccc(Cl)c1	fL	66.25
CC(C)(Sc1cc(C(C)(C)C)c(O)c(C(C)(C)C)c1)Sc1cc(C(C)(C)C)c(O)c(C(C)(C)C)c1	fL	63.47

====

Species on record: Rattus norvegicus
Assay Summary: DrugMatrix - Regimen: Daily Repeat
Format: toxicity, organism-based, Sprague-Dawley
Set-up: regimen Daily Repeat, gender Male, age 6-8 weeks
Stated Conditions: in vivo, po, 0 mg/kg, 120 h, tissue Plasma, route oral GAVAGE, dose level Control, time 5 day, vehicle .5 % CMC
Measured TOTAL PROTEIN accompanies every entry in the list below.
Property Name: TOTAL PROTEIN (G/DL)

Compound	Property Name	Unit Abbrev	Obs Value
CO[C@H]1C[C@@H]2CC[C@@H](C)[C@@](O)(O2)C(=O)C(=O)N2CCCC[C@H]2C(=O)O[C@H]([C@H](C)C[C@@H]2CC[C@@H](O)[C@H](OC)C2)CC(=O)[C@H](C)/C=C(\C)[C@@H](O)[C@@H](OC)C(=O)[C@H](C)C[C@H](C)/C=C/C=C/C=C/1C	TOTAL PROTEIN	G/DL	6.1
CN1C(=O)CN=C(c2ccccc2)c2cc(Cl)ccc21	TOTAL PROTEIN	G/DL	6.1
Nc1cccc(Cl)c1	TOTAL PROTEIN	G/DL	6.22
CC(=O)O[C@]1(C(C)=O)CC[C@H]2[C@@H]3C=C(Cl)C4=CC(=O)[C@@H]5C[C@@H]5[C@]4(C)[C@H]3CC[C@@]21C [CYPROTERONE ACETATE]	TOTAL PROTEIN	G/DL	6.02
C[C@@H]1CC[C@H]2[C@@H](C)C(=O)O[C@@H]3O[C@@]4(C)CC[C@@H]1[C@]32OO4	TOTAL PROTEIN	G/DL	6.08
CC[C@]1(O)CC[C@H]2[C@@H]3CCC4=CCCC[C@@H]4[C@H]3CC[C@@]21C	TOTAL PROTEIN	G/DL	6.23
CCOC(=O)[C@H](CCc1ccccc1)N[C@@H](C)C(=O)N1Cc2ccccc2C[C@H]1C(=O)O	TOTAL PROTEIN	G/DL	6.02
C[C@]12C/C(=C/O)C(=O)C[C@@H]1CC[C@@H]1[C@@H]2CC[C@@]2(C)[C@H]1CC[C@]2(C)O	TOTAL PROTEIN	G/DL	6.72
COc1ccc(/C=C/C(=O)Nc2ccccc2C(=O)O)cc1OC	TOTAL PROTEIN	G/DL	5.98
C=C(CC)C(=O)c1ccc(OCC(=O)O)c(Cl)c1Cl	TOTAL PROTEIN	G/DL	6.55
CCCCC1C(=O)N(c2ccccc2)N(c2ccccc2)C1=O	TOTAL PROTEIN	G/DL	6.13
C[C@@H](O)[C@H]1C(=O)N2C(C(=O)O)=C(S[C@@H]3CN[C@H](C(=O)N(C)C)C3)[C@H](C)[C@H]12	TOTAL PROTEIN	G/DL	5.98
CC(C(=O)O)c1ccc(-c2ccccc2)c(F)c1 (stereo unspecified)	TOTAL PROTEIN	G/DL	5.98
COc1ccccc1OCC(O)COC(N)=O (stereo unspecified)	TOTAL PROTEIN	G/DL	6.08
Cc1cnc(C(=O)NCCc2ccc(S(=O)(=O)NC(=O)NC3CCCCC3)cc2)cn1 [GLIPIZIDE]	TOTAL PROTEIN	G/DL	6.02
CC(C)(Sc1cc(C(C)(C)C)c(O)c(C(C)(C)C)c1)Sc1cc(C(C)(C)C)c(O)c(C(C)(C)C)c1	TOTAL PROTEIN	G/DL	5.98

====

Species: Rattus norvegicus
Assay Summary: DrugMatrix - Regimen: Daily Repeat
Assay type: toxicity, organism-based, Sprague-Dawley
Design: regimen Daily Repeat, gender Male, age 6-8 weeks
Stated Conditions: in vivo, po, 0 mg/kg, 72 h, tissue Plasma, route oral GAVAGE, dose level Control, time 3 day, vehicle .5 % CMC
Reported ALKALINE PHOSPHATASE values are given for each entry in this list.
Property Name: ALKALINE PHOSPHATASE (u/L)

                                   compound  obs_value
0  CC(C)(Sc1cc(C(C)(C)C)c(O)c(C(C)(C)C)c1)Sc1cc(C(C)(C)C)c(O)c(C(C)(C)C)c1     398.83
1  CC(C(=O)O)c1ccc(-c2ccccc2)c(F)c1 (stereo not drawn)     398.83
2  C[C@]12C/C(=C/O)C(=O)C[C@@H]1CC[C@@H]1[C@@H]2CC[C@@]2(C)[C@H]1CC[C@]2(C)O     388.17

====

Listed compounds paired with reported TOTAL PROTEIN
Species on record: Rattus norvegicus
Assay Summary: DrugMatrix - Regimen: Daily Repeat
Format: toxicity, organism-based, Sprague-Dawley
Parameters: regimen Daily Repeat, gender Male, age 6-8 weeks
Stated Conditions: in vivo, po, 0 mg/kg, 120 h, tissue Plasma, route oral GAVAGE, dose level Control, time 5 day, vehicle 100 % WATER
Property Name: TOTAL PROTEIN (G/DL)

Compound	Property Name	Obs Value
CCCCCCCCCCCCCCCC[n+]1ccccc1.[Br-]	TOTAL PROTEIN	6.07
CC[C@H]1OC(=O)[C@H](C)[C@@H](O[C@H]2C[C@@](C)(OC)[C@@H](O)[C@H](C)O2)[C@H](C)[C@@H](O[C@@H]2O[C@H](C)C[C@H](N(C)C)[C@H]2O)[C@](C)(O)C[C@@H](C)CN(C)[C@H](C)[C@@H](O)[C@]1(C)O	TOTAL PROTEIN	6.18
O=C(O)c1cccnc1	TOTAL PROTEIN	6
CC(C)(C)NC[C@H](O)COc1nsnc1N1CCOCC1	TOTAL PROTEIN	6.12
Nc1ccc(S(=O)(=O)Nc2nccs2)cc1	TOTAL PROTEIN	6.12
Nc1ccc(S(=O)(=O)Nc2ncccn2)cc1	TOTAL PROTEIN	6.83
O=P1(N(CCCl)CCCl)NCCCO1 (configuration not stated) [CYCLOPHOSPHAMIDE ANHYDROUS]	TOTAL PROTEIN	5.82
CNS(=O)(=O)Cc1ccc2[nH]cc(CCN(C)C)c2c1	TOTAL PROTEIN	5.98
CN1C2CCCC1CC(NC(=O)c1nn(C)c3ccccc13)C2 (configuration not stated)	TOTAL PROTEIN	6.12
O=C(O)c1cc(=O)c2c(OCC(O)COc3cccc4oc(C(=O)O)cc(=O)c34)cccc2o1	TOTAL PROTEIN	5.9
CC[C@H]1OC(=O)[C@H](C)[C@@H](O[C@H]2C[C@@](C)(OC)[C@@H](O)[C@H](C)O2)[C@H](C)[C@@H](O[C@@H]2O[C@H](C)C[C@H](N(C)C)[C@H]2O)[C@](C)(OC)C[C@@H](C)C(=O)[C@H](C)[C@@H](O)[C@]1(C)O	TOTAL PROTEIN	6.03
CCN[C@@H](C)Cc1cccc(C(F)(F)F)c1	TOTAL PROTEIN	6.83
OCCO	TOTAL PROTEIN	6.05
CCN(CC)CC#CCOC(=O)C(O)(c1ccccc1)C1CCCCC1 (configuration not stated)	TOTAL PROTEIN	6
Cc1c(N(C)CS(=O)(=O)[O-])c(=O)n(-c2ccccc2)n1C.[Na+] [DIPYRONE SODIUM]	TOTAL PROTEIN	6.43
CCCc1nn(C)c2c(=O)[nH]c(-c3cc(S(=O)(=O)N4CCN(C)CC4)ccc3OCC)nc12	TOTAL PROTEIN	6.05
CCOC(N)=O	TOTAL PROTEIN	6.1

The measured values listed here are drawn from ChEMBL document CHEMBL3885881.
